As shown below, each of these sequences has a reported thermal melting temperature value.
molecular target: HLA-A*02:01; assay: thermal melting temperature (Tm) of peptide-HLA complex; higher = more thermostable pHLA complex; conditions: C1R-A*02:01;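 further: lysates heated 10 min at 37–73 °C, complexes pulled down with pan-HLA I antibody, peptide signal by DIA-MS relative to 37 °C, Tm where half the complex is unfolded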
The full ranking holds about 1,100 sequences; the median of “thermal melting temperature (Tm) of peptide-HLA complex” is about 58, and the lowest 2% start at about 42. Many of the other results were omitted from the sample, so the lowest values are more common in it than they were.
Provide a numeric answer, followed by its unit.

Reference set (10 entries):
LLQEVEHQL | 57.8 °C
NLIPILKTV | 56 °C
ILSGVIRSV | 56.6 °C
VLHELTFQA | 60.4 °C
SQTFVNPHV | 57.8 °C
KLDFANNVQL | 50.3 °C
FMQHDVQEL | 41.6 °C
RLAEVGQYEQV | 56.3 °C
RLLDGAFKL | 49.9 °C
FLDDVVHSL | 58.8 °C

Look up thermal melting temperature of `KLLDIPGLEV` and report it.
61.3 °C

Look up thermal melting temperature of `ALLKDSIVQL` and report it.
40.9 °C

Each recorded value in this set is attributed to the supplement of paper PMC7726561.
